testSystem: rat PTP1 (Rattus norvegicus, UniProt P20417)
Construct: a C-terminal truncation of rat PTP1 (amino acid residues 1-322); GST (N, cleaved yes); made in house; host or cells: E. coli strain TG-1 (pGEX-2T)
Sequence (P20417 1-322): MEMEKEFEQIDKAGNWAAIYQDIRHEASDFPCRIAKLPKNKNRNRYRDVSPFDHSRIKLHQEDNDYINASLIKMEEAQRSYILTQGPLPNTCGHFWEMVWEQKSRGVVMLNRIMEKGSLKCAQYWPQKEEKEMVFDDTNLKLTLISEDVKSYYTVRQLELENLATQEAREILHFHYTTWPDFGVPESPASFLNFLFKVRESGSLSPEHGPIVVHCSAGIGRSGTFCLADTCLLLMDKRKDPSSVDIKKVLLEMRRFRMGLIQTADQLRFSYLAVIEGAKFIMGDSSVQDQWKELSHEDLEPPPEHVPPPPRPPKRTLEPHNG
testProtocol: PTP1 assay, pNPP hydrolysis (rate of change in A405)
Assay type: biochemical
conditionDetails: Conc 1 uM; pNPP hydrolysis; Table 1; read-out: PTP1 Inhib % Inhib
measuredMetric: inhibition at 1 µM (%)

CCCCCNC(=O)[C@H](Cc1ccc(CC(C(=O)O)C(=O)O)cc1)NC(=O)CCC(=O)O ... 0
CCCC[C@H](NC(=O)[C@H](Cc1ccc(OC(C(=O)O)C(=O)O)cc1)NC(=O)CCC(=O)O)C(N)=O ... 16
CCCCCNC(=O)C(Cc1ccc(OS(=O)(=O)O)cc1)NC(=O)CCC(=O)O (stereo not shown) ... 3
CCCCCNC(=O)C(Cc1ccc(OC(COO)COO)cc1)NC(=O)Nc1cc(C(=O)O)cc(C(=O)O)c1 (stereo not shown) ... 16
CCCCCNC(=O)[C@H](Cc1ccc(OC(C(=O)O)C(=O)O)cc1)NC(=O)C1CCCCC1C(=O)O (stereo partly shown) ... 3

I = CCCCCNC(=O)[C@H](Cc1ccc(OC(C(=O)O)C(=O)O)cc1)NC(=O)C(CC(=O)O)NC(=O)OC(C)(C)C (stereo partly shown)
II = CCCCCNC(=O)[C@H](Cc1ccc(OC(C(=O)O)C(=O)O)cc1)NC(=O)COCC(=O)O
Which has the higher inhibition at 1 µM, I or II ? Reply with the label of the item you choose.
I

P = O=C(O)CCC(=O)N[C@@H](Cc1ccc(OC(C(=O)O)C(=O)O)cc1)C(=O)NCCCN1CCOCC1
Q = CCCCCNC(=O)[C@H](Cc1ccc(OC(C(=O)O)C(=O)O)cc1)NC(=O)CCCC(=O)O
Hey, between P and Q which has a smaller measured inhibition at 1 µM? Reply with the label of the item you choose.
P
(P: 0%, Q: 2%)

* * *

testSystem: rat PTP1 (Rattus norvegicus)
Construct: a C-terminal truncation of rat PTP1 (amino acid residues 1-322); GST (N, cleaved yes); made in house; host or cells: E. coli strain TG-1 (pGEX-2T)
Sequence (P20417 1-322): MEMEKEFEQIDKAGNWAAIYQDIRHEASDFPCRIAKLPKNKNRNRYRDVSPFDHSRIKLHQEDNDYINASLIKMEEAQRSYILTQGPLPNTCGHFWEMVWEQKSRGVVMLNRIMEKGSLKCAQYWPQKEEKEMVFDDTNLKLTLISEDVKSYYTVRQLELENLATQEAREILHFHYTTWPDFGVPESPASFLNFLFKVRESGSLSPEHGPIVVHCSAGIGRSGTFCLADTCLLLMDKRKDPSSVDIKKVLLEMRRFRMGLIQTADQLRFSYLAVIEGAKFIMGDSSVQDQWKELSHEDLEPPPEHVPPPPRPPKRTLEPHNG
testProtocol: PTP1 assay, pNPP hydrolysis (rate of change in A405)
Assay type: biochemical
conditionDetails: Conc 100 uM; pNPP hydrolysis; Table 1; read-out: PTP1 Inhib % Inhib
measuredMetric: inhibition at 100 µM (%)

CCCCCNC(=O)C(Cc1ccc(OC(COO)COO)cc1)NC(=O)NCCC(=O)O (centres unmarked) ... 72
CCCCCNC(=O)C(Cc1ccc(OC(COO)COO)cc1)NC(=O)NC(CCC(=O)O)C(=O)O (centres unmarked) ... 94
CCCCCNC(=O)[C@H](Cc1ccc(OC(C(=O)O)C(=O)O)cc1)NC(=O)C(CC(=O)O)NC(=O)OC(C)(C)C (some centres unmarked) ... 90
O=C(O)CCC(=O)N[C@@H](Cc1ccc(OC(C(=O)O)C(=O)O)cc1)C(=O)NCCCN1CCOCC1 ... 35
CCCCCNC(=O)[C@H](Cc1ccc(OC(C(=O)O)C(=O)O)cc1)NC(=O)CC(C)(C)CC(=O)O ... 67

a = CCCCCCNC(=O)[C@H](Cc1ccc(OC(C(=O)O)C(=O)O)cc1)NC(=O)CCC(=O)O
b = CCOC(CNC(=O)[C@H](Cc1ccc(OC(C(=O)O)C(=O)O)cc1)NC(=O)CCC(=O)O)OCC
Which has the higher inhibition at 100 µM, a or b ? Reply with the label of the item you choose.
a
(a: 74%, b: 46%)

I = CCCCCNC(=O)[C@H](Cc1ccc(OC(C(=O)O)C(=O)O)cc1)NC(=O)[C@H](CCC(=O)O)NC(=O)OC(C)(C)C
II = CCCCCNC(=O)[C@H](Cc1ccc(OC(C(=O)O)C(=O)O)cc1)NC(=O)C1C2CCC(CC2)C1C(=O)O (some centres unmarked)
III = O=C(O)CCC(=O)N[C@@H](Cc1ccc(OC(C(=O)O)C(=O)O)cc1)C(=O)NCCN1CCCCC1
Put the items in sequence by inhibition at 100 µM, from largest down. // ordering of labels required in reply
I, II, III

A = O=C(O)CCC(=O)NC(Cc1ccc(OC(COO)COO)cc1)C(=O)NCCCc1ccccc1 (centres unmarked)
B = CCCCCNC(=O)[C@H](Cc1ccc(OC(C(=O)O)C(=O)O)cc1)NC(=O)C1C(C(=O)O)[C@@H]2CC[C@@H]1C2 (some centres unmarked)
Hey, between A and B which has a smaller measured inhibition at 100 µM? Reply with the label of the item you choose.
B
(B: 37%, A: 72%)

A = CCCCCNC(=O)[C@H](Cc1ccc(OC(C(=O)O)C(=O)O)cc1)NC(=O)C1CCCCC1C(=O)O (some centres unmarked)
B = CCCCCNC(=O)[C@H](Cc1ccc(OC(C(=O)O)C(=O)O)cc1)NC(=O)[C@H](CCC(=O)O)NC(=O)CCC(=O)O
Which has the higher inhibition at 100 µM, A or B ? Reply with the label of the item you choose.
B
(B: 96%, A: 62%)

* * *

testSystem: rat PTP1 (Rattus norvegicus)
Construct: a C-terminal truncation of rat PTP1 (amino acid residues 1-322); GST (N, cleaved yes); made in house; host or cells: E. coli strain TG-1 (pGEX-2T)
testProtocol: PTP1 assay, pNPP hydrolysis (rate of change in A405)
Type: biochemical
conditionDetails: inhibition of pNPP-hydrolysis; compound concentration 10 μM; read-out: % Inhibition
Method: […] PTP1 activity is measured using either p-nitrophenol phosphate (pNPP) or a triphosphopeptide (that matches residues 1142 through 1153 of the β-subunit and the insulin receptor) as substrate in a 96-well microtiter plate format. An assay pH of 7.2 is used for standard assays (measured 405=9800 at pH 7.2). […]
measuredMetric: inhibition at 10 µM (%)

O=C(O)COc1ccc(C[C@H](NC(=O)c2ccoc2)C(=O)NCCCCc2ccc(Cl)cc2)cc1C(=O)O ... 78
COc1ccc(CCCCNC(=O)[C@H](Cc2ccc(OCC(=O)O)c(C(=O)O)c2)NC(=O)c2ccc(Cl)nc2)cc1 ... 77
O=C(O)COc1ccc(C[C@H](NS(=O)(=O)c2ccccc2)C(=O)NCCCOc2ccccc2)cc1C(=O)O ... 72
CC(C)(C)OC(=O)N[C@@H](Cc1ccccc1)C(=O)N[C@@H](Cc1ccc(OCC(=O)O)c(C(=O)O)c1)C(=O)NCCCc1ccccc1 ... 84
O=C(O)COc1ccc(C[C@H](NS(=O)(=O)c2ccc(F)cc2F)C(=O)NCCCCc2ccc(Cl)cc2)cc1C(=O)O ... 69
CCCCCNC(=O)[C@H](Cc1ccc(OCC(=O)O)c(C(=O)O)c1)NC(=O)[C@H](Cc1ccccc1)NC(=O)Oc1ccccc1 ... 85
O=C(O)COc1ccc(C[C@H](NC(=O)c2ccccc2)C(=O)NCCCCc2ccccc2)cc1C(=O)O ... 81
O=C(O)COc1ccc(C[C@H](NC(=O)c2ccc(Cl)cc2)C(=O)NCCCCc2ccc(Cl)cc2)cc1C(=O)O ... 79
O=C(O)COc1ccc(C[C@H](NC(=O)c2cccnc2)C(=O)NCCCCc2ccccc2)cc1C(=O)O ... 73
O=C(O)COc1ccc(C[C@H](NC(=O)c2ccc(Cl)cc2)C(=O)NCCCCc2ccccc2)cc1C(=O)O ... 85

* * *

testSystem: human PTP1B (Homo sapiens, UniProt P18031)
Construct: human PTP1B (amino acid residues 1-321); made in house; host or cells: E. coli BL21(DE3)
Sequence (P18031 1-321): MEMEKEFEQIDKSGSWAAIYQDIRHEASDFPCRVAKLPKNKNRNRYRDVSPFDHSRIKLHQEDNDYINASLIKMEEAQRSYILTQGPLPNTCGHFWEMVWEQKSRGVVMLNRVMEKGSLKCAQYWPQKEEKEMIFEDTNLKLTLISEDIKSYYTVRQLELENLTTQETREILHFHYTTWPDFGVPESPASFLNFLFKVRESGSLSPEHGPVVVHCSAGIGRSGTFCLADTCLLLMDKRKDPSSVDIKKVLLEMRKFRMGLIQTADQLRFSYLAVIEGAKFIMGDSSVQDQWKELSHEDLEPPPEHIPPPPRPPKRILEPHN
testProtocol: PTP1B assay, pNPP hydrolysis, assayed exactly as for PTP1
Format: biochemical
conditionDetails: Conc 10 uM, Table 2, read-out: PTP1B Inhib PTP1B. % Inhib
measuredMetric: inhibition at 10 µM (%)

CCCCCNC(=O)[C@H](Cc1ccc(OC(F)C(=O)O)c(C(=O)O)c1)NC(=O)[C@H](Cc1ccccc1)NC(=O)OC(C)(C)C (stereo partly shown) ... 76
CCCCCNC(=O)C(Cc1ccc(OCCOO)c(COO)c1)NC(=O)C(Cc1ccccc1)NC(=O)Cc1cccc(O)c1 (stereo not shown) ... 86
CCCCCNC(=O)[C@H](Cc1ccc(OCC(=O)O)c(C(=O)O)c1)NC(=O)C(Cc1ccccc1)NC(=O)CSc1nnc[nH]1 (stereo partly shown) ... 82
CCCCCNC(=O)C(Cc1ccc(OCCOO)c(COO)c1)NC(=O)C(Cc1ccccc1)NC(=O)CCNC(=O)OC(C)(C)C (stereo not shown) ... 75
CCCCCNC(=O)C(Cc1ccc(OC(COO)COO)cc1)NC(=O)N(Cc1ccccc1)C(CCc1ccccc1)CC(=O)O (stereo not shown) ... 8
CCCCCNC(=O)C(Cc1ccc(OC(COO)COO)cc1)NC(=O)C(Cc1ccccc1)NC(=O)OC(C)(C)C (stereo not shown) ... 48
CCCCCNC(=O)[C@H](Cc1ccc(OCC(=O)OC)c(C(=O)O)c1)NC(=O)[C@H](Cc1ccccc1)NC(=O)OC(C)(C)C ... 5
CCCCCNC(=O)C(Cc1ccc(OC(COO)COO)cc1)NC(=O)C(Cc1ccccc1)NC(=O)CCN(CC)CC (stereo not shown) ... 54
CCCCCNC(=O)C(Cc1ccc(OCCOO)c(COO)c1)NC(=O)C(Cc1ccccc1)NC(=O)CCC(=O)O (stereo not shown) ... 93
CCCCCNC(=O)[C@H](Cc1ccc(OCC(=O)O)c(C(=O)O)c1)NC(=O)C(Cc1ccccc1)N1CCCC1=O (stereo partly shown) ... 71

A = CCCCCNC(=O)C(Cc1ccc(OC(COO)COO)cc1)NC(=O)C(Cc1ccc2ccccc2c1)NC(=O)OC(C)(C)C (stereo not shown)
B = CCCCCNC(=O)C(Cc1ccc(OCCOO)c(COO)c1)NC(=O)C(Cc1ccccc1)NC(=O)CCCO (stereo not shown)
Hey, between A and B which has a smaller measured inhibition at 10 µM? Reply with the label of the item you choose.
A
(A: 29%, B: 78%)
